- Measured Target: recombinant HDAC1 (Homo sapiens, UniProt Q13547)
- Sequence (Q13547 whole entry): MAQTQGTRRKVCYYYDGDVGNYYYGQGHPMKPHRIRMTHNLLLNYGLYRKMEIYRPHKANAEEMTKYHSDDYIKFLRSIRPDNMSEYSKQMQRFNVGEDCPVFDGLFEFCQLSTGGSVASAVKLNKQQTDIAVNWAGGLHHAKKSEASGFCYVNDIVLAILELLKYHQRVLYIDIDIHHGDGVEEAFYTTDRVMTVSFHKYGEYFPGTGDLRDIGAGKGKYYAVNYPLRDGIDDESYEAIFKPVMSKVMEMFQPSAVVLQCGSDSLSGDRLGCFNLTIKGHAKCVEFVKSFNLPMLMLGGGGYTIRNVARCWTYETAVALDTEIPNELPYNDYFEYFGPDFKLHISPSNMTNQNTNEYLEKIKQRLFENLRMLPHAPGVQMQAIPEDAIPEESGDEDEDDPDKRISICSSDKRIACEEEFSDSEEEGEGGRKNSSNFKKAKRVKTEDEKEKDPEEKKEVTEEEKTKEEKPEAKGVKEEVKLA
- Test Description: In vitro HDAC activity assay, recombinant HDAC1
- Reported Conditions: read-out: IC50 recombinant HDAC1 deacetylase activity
Result Type: pIC50
pIC50 field: float, defined as -log10 of concentration (mol/L).

Summary for this compound, "CC(C)(C)OC(=O)Nc1cccc(-c2cc(C(=O)NCCCCCCC(=O)NO)no2)c1" : pIC50 is 8.59

* * *

- Measured Target: recombinant HDAC6 (Homo sapiens)
- Sequence (Q9UBN7 whole entry): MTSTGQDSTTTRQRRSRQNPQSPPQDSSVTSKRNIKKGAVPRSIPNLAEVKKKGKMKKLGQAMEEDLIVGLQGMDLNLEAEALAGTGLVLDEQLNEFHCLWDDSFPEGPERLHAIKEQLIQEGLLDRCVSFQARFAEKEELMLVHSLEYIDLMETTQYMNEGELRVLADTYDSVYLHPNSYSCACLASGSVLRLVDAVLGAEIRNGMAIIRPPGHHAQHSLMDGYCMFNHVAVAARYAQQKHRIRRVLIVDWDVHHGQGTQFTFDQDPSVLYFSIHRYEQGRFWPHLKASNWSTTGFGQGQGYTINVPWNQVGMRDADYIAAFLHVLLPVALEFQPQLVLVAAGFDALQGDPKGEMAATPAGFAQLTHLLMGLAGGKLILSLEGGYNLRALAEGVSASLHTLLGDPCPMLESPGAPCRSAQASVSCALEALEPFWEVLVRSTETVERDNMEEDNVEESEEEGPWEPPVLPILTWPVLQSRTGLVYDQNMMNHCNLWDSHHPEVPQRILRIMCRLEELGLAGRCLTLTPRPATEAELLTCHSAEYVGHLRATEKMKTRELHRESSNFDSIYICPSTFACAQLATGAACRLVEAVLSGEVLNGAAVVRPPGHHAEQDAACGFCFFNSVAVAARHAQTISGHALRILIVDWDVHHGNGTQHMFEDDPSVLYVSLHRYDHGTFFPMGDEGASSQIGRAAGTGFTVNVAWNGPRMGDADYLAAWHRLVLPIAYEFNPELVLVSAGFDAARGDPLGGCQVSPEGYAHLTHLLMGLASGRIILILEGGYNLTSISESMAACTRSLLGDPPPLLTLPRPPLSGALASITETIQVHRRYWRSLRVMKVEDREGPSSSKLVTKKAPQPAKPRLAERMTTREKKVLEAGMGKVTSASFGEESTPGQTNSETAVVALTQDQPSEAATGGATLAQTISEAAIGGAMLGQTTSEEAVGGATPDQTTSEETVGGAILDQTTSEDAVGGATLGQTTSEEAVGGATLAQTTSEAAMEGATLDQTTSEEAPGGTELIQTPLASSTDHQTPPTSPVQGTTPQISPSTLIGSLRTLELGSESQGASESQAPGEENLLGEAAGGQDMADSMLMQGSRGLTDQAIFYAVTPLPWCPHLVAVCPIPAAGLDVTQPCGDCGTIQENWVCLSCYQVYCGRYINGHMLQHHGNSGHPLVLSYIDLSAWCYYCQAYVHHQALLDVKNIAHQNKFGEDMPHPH
- Test Description: In vitro HDAC activity assay, recombinant HDAC6
- Reported Conditions: read-out: IC50 recombinant HDAC6 deacetylase activity
Result Type: IC50 (nM)
# output: bare number, implied unit nM

Record CC(C)(C)OC(=O)Nc1cccc(-c2cc(C(=O)NCCCCCCC(=O)NO)no2)c1 [MAKV-8] has recombinant HDAC6 (Homo sapiens) IC50 equal to 11.4
